Tested on: GBM-A
Assay: cell killing, GBM-A patient-derived GBM CSC line
Type: cell-based, human
Details: read-out: GBM-A IC50; cell killing, 72 hours
MEASUREMENT_TYPE: pIC50
In plain terms, pIC50 is the concentration in mol/L turned into minus its base-10 logarithm.

See these solved cases before continuing.
Exercise: pIC50 lookup needed for CC(=O)N(Cc1ccc(F)cc1)C1=C(NCc2ccccc2)C(=O)c2ccccc2C1=O , thanks.
Key: 6.70

Exercise: Same question, COCCN(C(C)=O)C1=C(NCc2cnccn2)C(=O)c2ccccc2C1=O this time
Key: 8.00

Moving on to another compound below.
Exercise: Name the reported pIC50 value associated with the compound Cc1n(Cc2ccc(F)cc2)c2c([n+]1Cc1ccccc1)C(=O)c1ccccc1C2=O
Key: 7.57

###

System: primary human astrocytes (HA)
Assay: cytotoxicity in control primary human astrocytes
Format: cell-based
Conditions: Homo sapiens, Astrocyte, 72 h, read-out: HA IC50
MEASUREMENT_TYPE: pIC50
Conceptually, pIC50 converts a concentration in mol/L into minus its log10.

Exercise: Provide value of pIC50 for this record tested with primary human astrocytes (HA): COCCn1c2c([n+](Cc3cnccn3)c1C)C(=O)c1ccccc1C2=O [YM155, sepantronium bromide]
Key: 8.29

###

Test system: HT-1080 fibrosarcoma cells
Assay: cytotoxicity in HT-1080 fibrosarcoma cells
Assay type: cell-based
Settings: Homo sapiens, HT-1080, read-out: HT-1080 IC50
MEASUREMENT_TYPE: pIC50
Quick note: pIC50 means taking -log10 of the concentration in moles per liter.

Exercise: // pIC50 lookup, key: COCCn1c2c([n+](Cc3cnccn3)c1C)C(=O)c1ccccc1C2=O [YM155, sepantronium bromide]
Key: 8.51

###

Tested on: GBM-A
Experiment: cell killing, GBM-A patient-derived GBM CSC line
Format: cell-based, human
Conditions: Homo sapiens, 72 h, read-out: GBM-A IC50
MEASUREMENT_TYPE: pIC50
API: returns pIC50 as number; meaning -log10 of concentration in mol/L.

Exercise: Give recorded pIC50 with GBM-A for the following compound: COCCn1c2c([n+](Cc3cnccn3)c1C)C(=O)c1ccccc1C2=O [YM155, sepantronium bromide]
Key: 8.35

###

Test system: GBM-F
Test: cell killing, GBM-F patient-derived GBM CSC line
Format: cell-based, human
Details: Homo sapiens, 72 h, read-out: GBM-F IC50
MEASUREMENT_TYPE: IC50 (nM)
Value expressed in nM; do not type the unit.

Exercise: Fill blank: measured IC50 of the compound COCCn1c2c([n+](Cc3cnccn3)c1C)C(=O)c1ccccc1C2=O [YM155, sepantronium bromide] is ____.
Key: 0.78

###

Tested on: LN229
Assay: cytotoxicity in hyper-MGMT methylated cell line
Format: cell-based
Settings: read-out: LN229 IC50; hyper-MGMT methylated
MEASUREMENT_TYPE: IC50 (nM)
Give a bare numeral; the unit nM is implied.

Exercise: Could you share which IC50 value was measured for COCCN(C(C)=O)C1=C(NCc2cnccn2)C(=O)c2ccccc2C1=O [aYM155] ?
Key: 12

###

System: control neural cell types
Experiment: cytotoxicity in control neural cell types
Type: cell-based, human
Settings: read-out: IC50 in control neural cell types; HA and NPC
pIC50: −log10 of the molar value.
MEASUREMENT_TYPE: pIC50

Exercise: Any idea what pIC50 was measured for COCCN(C(C)=O)C1=C(NCc2cnccn2)C(=O)c2ccccc2C1=O ?
Key: 7.01 to 7.21

###

System: U87-EGFRvIII cells
Test: Cell-titer glo cell viability in U87-EGFRvIII cells after shRNA knockdown
Format: cell-based
Settings: 24 h, read-out: 24-hour IC50 value
MEASUREMENT_TYPE: pIC50
Conceptually, pIC50 converts a concentration in mol/L into minus its log10.

Exercise: Name the reported pIC50 value associated with the compound COCCn1c2c([n+](Cc3cnccn3)c1C)C(=O)c1ccccc1C2=O [YM155, sepantronium bromide]
Key: 7.70

Values were extracted from paper PMC10551045.
